Data provenance is patent US10703764B2.

Overview of recorded pIC50 for various compounds
target: BRD4 BD2 (Homo sapiens); test: AlphaScreen binding assay, BRD4 Bromodomain 2
pIC50: −log10 of the molar value.

{"columns": ["compound", "outcome.measure", "test.value"],
 "data": [
  ["CC(C)OC(=O)N1CC(C)N(C(=O)C2CC2)c2ccc(-c3cnn(Cc4c[nH]cn4)c3)cc21 (stereo not drawn)", "pIC50", "6.30 to 7.30"]
]}

Request: Bench note: what pIC50 did CC(=O)N1c2ccc(-c3ccc(C(=O)N4CCOCC4)cc3)cc2N(C(=O)c2ccco2)C[C@@H]1C show?
Result: > 7.30

Request: Bench note: what pIC50 did CC(=O)N1c2ccc(-c3cnn(C4COC4)c3)cc2N(c2nn(C)c3ccccc23)C[C@@H]1C show?
Result: > 7.30

Request: Bench note: what pIC50 did CCOC(=O)N1C[C@H](C)N(C(C)=O)c2ccc(-c3ccc(OCCS(C)(=O)=O)cc3)cc21 show?
Result: 6.30 to 7.30

Request: Bench note: what pIC50 did CC(=O)N1c2ccc(NCc3ccccc3)cc2N(C(=O)c2ccco2)C[C@@H]1C show?
Result: 6.30 to 7.30

Request: Bench note: what pIC50 did CC(=O)N1c2ccccc2N(C(=O)Cn2cnc3ccccc32)C[C@@H]1C show?
Result: < 6.30

Request: Bench note: what pIC50 did COCC(=O)N1c2ccc(-c3ccc(S(C)(=O)=O)cc3)cc2N(C(=O)c2ccco2)C[C@@H]1C show?
Result: < 6.30

Request: Bench note: what pIC50 did CC(=O)N1c2ccc(-c3ccc(S(=O)(=O)C(C)C)cc3)cc2N(C(=O)OC2CCOCC2)C[C@@H]1C show?
Result: 6.30 to 7.30

Request: Bench note: what pIC50 did COC(=O)N1c2ccc(-c3cnn(C4CCNCC4)c3)cc2N(C(=O)Oc2cccnc2)C[C@@H]1C show?
Result: 6.30 to 7.30

Request: Bench note: what pIC50 did CC(=O)N1c2ccc(-c3cnn(Cc4ccno4)c3)cc2N(C(=O)OC(C)C)C[C@@H]1C show?
Result: 6.30 to 7.30

Request: Bench note: what pIC50 did CC(=O)N1c2ccc(-c3cnn(C4CC4)c3)cc2N(C(=O)Oc2ccc3cccnc3c2)C[C@@H]1C show?
Result: 6.30 to 7.30

Request: Bench note: what pIC50 did CC(=O)N1c2ccc(-c3cccc(S(=O)(=O)C4CC4)c3)cc2N(C(=O)C2CC2)C[C@@H]1C show?
Result: 6.30 to 7.30

Request: Bench note: what pIC50 did CC(=O)N1c2ccc(-c3cnn(C4CC4)c3)cc2N(C(=O)Oc2c(Cl)cc(Cl)c3cccnc23)C[C@@H]1C show?
Result: 6.30 to 7.30

Request: Bench note: what pIC50 did COc1cc(Cl)ccc1S(=O)(=O)N1C[C@H](C)N(C(C)=O)c2ccccc21 show?
Result: < 6.30

Request: Bench note: what pIC50 did CC(=O)N1c2ccc(-c3cnn(CC(F)F)c3)cc2N(C(=O)OC(C)C)C[C@@H]1C show?
Result: 6.30 to 7.30

---

molecular target: BRD4 BD2 (Homo sapiens, UniProt O60885); assay: AlphaScreen binding assay, BRD4 Bromodomain 2
pIC50: −log10 of the molar value.
Overview of recorded pIC50 for various compounds

Before answering, review these 3 worked examples.
{"columns": ["compound", "test.value"],
 "data": [
  ["CC(=O)N1c2ccc(-c3ccc(S(=O)(=O)N(C)C)c(C)c3)cc2N(C(=O)OC(C)C)C[C@@H]1C [Example I-1299]", "6.30 to 7.30"],
  ["CC(=O)N1c2ccc(-c3cnn(C)c3)cc2N(C(=O)c2ccco2)C[C@@H]1C [Example I-822]", "> 7.30"],
  ["CC(=O)N1c2ccc(-c3ccc(S(C)(=O)=O)cc3)cc2N(C(=O)Oc2ccc(Cl)cc2)C[C@@H]1C [Example I-226]", "6.30 to 7.30"]
]}

Request: Bench note: what pIC50 did CCOC(=O)N1C[C@H](C)N(C(C)=O)c2ccc(-c3ccc(N4CCCC4=O)cc3)cc21 [Example I-1133] show?
Result: 6.30 to 7.30

Request: Bench note: what pIC50 did CC(=O)N1c2ccc(-c3cccc(NS(=O)(=O)N(C)C)c3)cc2N(C(=O)C2CC2)C[C@@H]1C [Example I-1143] show?
Result: 6.30 to 7.30

Request: Bench note: what pIC50 did CC(=O)N1c2ccc(-c3ccc(N4CCOCC4)cc3)cc2N(C(=O)c2ccco2)C[C@@H]1C [Example I-850] show?
Result: > 7.30

Request: Bench note: what pIC50 did CC(=O)N1c2ccc(-c3ccc(S(C)(=O)=O)cc3)cc2N(C(=O)c2ccc(C(F)(F)F)o2)C[C@@H]1C [Example I-887] show?
Result: 6.30 to 7.30

Request: Bench note: what pIC50 did CC(=O)N1c2ccccc2N(C(=O)c2snnc2C)C[C@@H]1C [Example I-757] show?
Result: < 6.30

Request: Bench note: what pIC50 did C[C@H]1CN(C(=O)c2ccco2)c2cc(-c3ccc(S(C)(=O)=O)cc3)ccc2N1C(=O)N1CCCC1 [Example I-376] show?
Result: < 6.30

Request: Bench note: what pIC50 did CC(=O)N1c2ccccc2N(C(=O)c2cnc3ccccc3c2)C[C@@H]1C [Example I-752] show?
Result: < 6.30

Request: Bench note: what pIC50 did CC(=O)N1c2ccc(-c3ccc(S(N)(=O)=O)cc3)cc2N(C(=O)C2CC2)C[C@@H]1C [Example I-1066] show?
Result: 6.30 to 7.30

Request: Bench note: what pIC50 did CC(=O)N1c2ccc(-c3ccc(N4CCN(C)CC4)cc3)cc2N(C(=O)c2ccco2)C[C@@H]1C [Example I-874] show?
Result: > 7.30

Request: Bench note: what pIC50 did CC(=O)N1c2ccc(-c3cnn(C(C)(C)CO)c3)cc2N(C(=O)Oc2ccc(F)cc2)C[C@@H]1C [Example I-1020] show?
Result: > 7.30

Request: Bench note: what pIC50 did COC(=O)N1c2ccc(-c3cnn(CC(C)(C)O)c3)cc2N(C(=O)Oc2ccc(F)cc2)C[C@@H]1C [Example I-1023] show?
Result: > 7.30

Request: Bench note: what pIC50 did CC(=O)N1c2ccc(-c3cnn(CC(N)=O)c3)cc2N(C(=O)OC(C)C)C[C@@H]1C [Example I-304] show?
Result: 6.30 to 7.30
